biological target: T1, human Claudin18.1 (CLDN18.1) (human, UniProt P56856 1-261); experiment: FACS on CHOK1-18.1 cells;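 also: antibody binding to cells detected with a fluorescently labelled secondary antibody, read out as median fluorescence intensity (MFI) by flow cytometry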
T1 construct: whole, on cells; also called human Claudine18.1
T1 sequence (P56856 whole entry): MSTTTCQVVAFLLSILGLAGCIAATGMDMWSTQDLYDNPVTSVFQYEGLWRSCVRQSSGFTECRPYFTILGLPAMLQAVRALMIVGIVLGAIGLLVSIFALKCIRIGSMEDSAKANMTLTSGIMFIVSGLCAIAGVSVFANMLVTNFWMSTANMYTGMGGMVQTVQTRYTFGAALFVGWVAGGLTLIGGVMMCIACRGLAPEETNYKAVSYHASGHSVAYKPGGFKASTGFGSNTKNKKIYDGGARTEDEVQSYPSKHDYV

binder	binding result
Ab09 (antibody, V domains shown, mouse monoclonal (hybridoma)) VH: EVQLQQSGPELVKPGTSVKMSCKASGYTFTDYNMHWVKLSHGKSLEWIGYINPNNGGTIYNQRFKGKATLTVNKSSRTAYMDLRSLTSEDSAVYYCARQGYYGNSMDYWGQGNSVTVSS VL: DIVMTQSPSSLTVTPGERVTMSCKSSQSLLNGGNQRNYLTWYQQKPGQPPKLLIYWASTRESGVPDRFAGSGSGTDFTLTISRVQAEDLSFYYCQNSYFYPFTFGSGTKLDLR	no binding
Ab19 (antibody, V domains shown, mouse monoclonal (hybridoma)) VH: EVMLVESGGDLVKPGGSLKLSCAASGFSFSRYTMSWVRQTPEKRLEWVATVSVGSGNTYYLDSVKGRFTISRDNAKNTLFLQMSSLRSEDTALYYCARMGQTQRNAVDYWGQGTSVTVSS VL: DIVMTQSPSSLSVSAGEKVTMSCKSSQSLFNSGNQKNYLAWYQQKPGQPPKLLIYGASTRESGVPDRFTGSGSGTDFTLTISNVQAEDLAVYLCQNDHSFPLTFGAGTKLEL	no binding
